Target: Proteasome subunit beta (Trypanosoma cruzi) (UniProt O96673)
Sequence (whole entry): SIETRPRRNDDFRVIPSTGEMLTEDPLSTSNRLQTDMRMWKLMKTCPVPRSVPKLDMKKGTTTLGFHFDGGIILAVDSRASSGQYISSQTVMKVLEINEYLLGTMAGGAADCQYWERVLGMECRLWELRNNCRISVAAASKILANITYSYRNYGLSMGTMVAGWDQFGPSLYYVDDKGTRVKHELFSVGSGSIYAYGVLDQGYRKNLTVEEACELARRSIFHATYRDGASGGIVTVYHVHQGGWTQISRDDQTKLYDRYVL
Experiment: Trypanosoma cruzi proteasome chymotrypsin-like activity (TcProtChymo) assay.
Type: functional
Set-up: scale not given: direction of the effect not stated beside the values
Details: 9.37 µM
Readout type: Percent Effect
Dear colleague, please send the value followed by its unit.

Example entries begin here.
CCCNC(=O)Cn1cc(-c2ccccc2)cn1
4.97%
Cc1noc([C@@H]2C[C@H]3OCC[C@H]3N(S(=O)(=O)c3cccnc3)C2)n1
4.02%
CCN1CCOC(CNCc2ccccc2OCc2ccccn2)C1 (configuration not stated)
9.56%
Cc1nc(C)n(CC2CN(Cc3cccnc3)CCO2)n1 (configuration not stated)
6.85%
O=C(c1nc(-c2ccc3cc[nH]c3c2)no1)N1CCCC1
11.7%

Quick batch: Percent Effect for everything below.
1. COCCNS(=O)(=O)c1ccc2c(c1)CCN(C(=O)c1cncn1C)C2
2. CC(C)COC(C)C(=O)NCc1cc(F)cc(F)c1 (configuration not stated)
3. CC1CCc2nc(O)c(C(=O)NCc3cccc(F)c3)cc2C1 (configuration not stated)
4. Cc1ccc(NC(=O)NC(C)c2nc[nH]n2)s1 (configuration not stated)
5. O=C(COCC1CC1)N1CCCC(n2ccnc2)C1 (configuration not stated)

Response:
["22.1%", "-0.728%", "4.99%", "9.7%", "9.26%"]

Record Percent Effect per entry; entries follow.
1. O=C(c1cccc(S(=O)(=O)NCCCc2ncc[nH]2)c1)N1CCOCC1
2. Cn1ccnc1CC1CCCN(C(=O)Nc2cccn(C)c2=O)C1 (configuration not stated)

Response:
["13.8%", "12.9%"]

---

Hi there, I'd appreciate the recorded Percent Effect for every entry that follows.
target: Proteasome subunit beta (Trypanosoma cruzi); test: Trypanosoma cruzi proteasome chymotrypsin-like activity (TcProtChymo) assay.; type: functional; design: scale not given: in the data most compounds retested in dose-response had high values; details: 9.37 µM
Give bare numbers, in %.

// for each compound in input: emit Percent Effect
1. Cc1cc(C(=O)N[C@@H]2CCNC[C@H]2O)ccc1Cl
2. CC(C)c1cc(NC(=O)CN2CCCC2Cn2cccn2)on1 (configuration not stated)
3. O=C(CN1CCOC(Cn2cccn2)C1)NCCc1ccc(F)cc1 (configuration not stated)
4. Cc1csc(N2CCN(Cc3ccccn3)CC2C)n1 (configuration not stated)

Response:
[11.4, -0.761, 7.18, 13.3]

Fill in Percent Effect for each of the 7 compounds listed.
1. CN(C)C(=O)N1C[C@H](Oc2ccccn2)[C@H]2OCCC[C@H]21
2. COc1ncccc1NC(=O)NC1CCOc2ccccc21 (configuration not stated)
3. Cc1nnc2n1CCN(C(=O)c1cn(-c3ccccc3Cl)nn1)C2
4. O=C(c1ccc(Cl)cc1)N1CCCn2nnc(Cn3cccn3)c2C1
5. CCc1nnsc1C(=O)N1CCOC(c2nc(C)n[nH]2)C1 (configuration not stated)
6. CN(Cc1cn2c(n1)CN(c1ncc(F)cn1)CC2)Cc1ccco1
7. CCOc1ccc(CNCCCn2ccnc2)cc1Br

Response:
[3.65, 8.08, 6.25, 16.6, 8.23, 20.7, 12.8]

Looking up Cc1nn(C)c(C)c1CCC(=O)N1CCCC1Cn1cccn1 (configuration not stated) , I see its Percent Effect listed as 3.63

---

tested on: Trypanosoma cruzi; test: Trypanosoma cruzi phosphomannomutase and mannose-1-phosphate guanylyltransferase assay; type: functional; set-up: scale not given: direction of the effect not stated beside the values; settings: 10 µM
Kindly state Percent Effect for each of the entries shown.
Answers are plain numbers, in %.

// worked examples, Percent Effect included
CC(C)c1nc2n(n1)CC(NCc1nc(-c3cccnc3)no1)CC2 (stereo not given)
5.78
Cc1cccc(-c2noc(CN3CCC(N4CCNC4=O)CC3)n2)c1
0.374
CCS(=O)(=O)c1ccccc1C(=O)NCc1ccnc(N(C)C)c1
2.62
COCC(=O)NCc1cccc(Br)c1
4.89
Cc1nn(CCO)c(C)c1CNC1CCc2c(Cl)cccc21 (stereo not given)
8.67
Cc1occc1C(=O)N1CCC2(CCCN(CC3CCC3)C2=O)C1 (stereo not given)
2.62

I need Percent Effect for every entry listed below, if you could help.
1. CCn1cc2c(n1)CN(Cc1ccncc1)CC2COCC1CC1 (stereo not given)
2. Cc1ccc(CNC(=O)Cn2ncc3c2c(C)nn3C)cc1
3. COc1ccc2c(ccn2CCC(=O)O)c1
4. CC(C)c1n[nH]c(C2CN(C(=O)c3cccc4cn[nH]c34)CCO2)n1 (stereo not given)
5. Fc1ccc(CNCC2OCCc3cn(CC4CC4)nc32)cc1 (stereo not given)
6. CCOC(=O)c1sc2ccsc2c1CNC(=O)CC
7. CN(CC(=O)N(C)C1CCCCC1)C1CCc2ccccc21 (stereo not given)
8. COc1ccc(C)cc1CNCc1ccc(-n2nc(C)cc2C)nc1

Response:
[-1.97, -6.68, -8.45, 2.33, 2.05, 7.15, -7.14, -2.82]

Provide reported Percent Effect for each item, in the same order as listed.
1. CNc1cncc(C2CCCN2C(=O)c2ccc3oc(=O)n(C)c3c2)n1 (stereo not given)
2. Cc1cc(C)c(CNC(=O)NCCOc2ccc3c(c2)CCC3)c(=O)[nH]1
3. Cc1cc(C)c2c(c1)C1(CC(=O)Nc3c1cnn3C(C)C)C(=O)N2 (stereo not given)
4. c1coc(-c2noc(CN3CC(n4cccn4)C3)n2)c1

Response:
1: 3.36; 2: 9.96; 3: 0.982; 4: 0.49

---

Biological target: Tyrosyl-tRNA synthetase, putative (Trypanosoma cruzi (strain CL Brener)) (UniProt Q4DSP6)
Sequence (whole entry): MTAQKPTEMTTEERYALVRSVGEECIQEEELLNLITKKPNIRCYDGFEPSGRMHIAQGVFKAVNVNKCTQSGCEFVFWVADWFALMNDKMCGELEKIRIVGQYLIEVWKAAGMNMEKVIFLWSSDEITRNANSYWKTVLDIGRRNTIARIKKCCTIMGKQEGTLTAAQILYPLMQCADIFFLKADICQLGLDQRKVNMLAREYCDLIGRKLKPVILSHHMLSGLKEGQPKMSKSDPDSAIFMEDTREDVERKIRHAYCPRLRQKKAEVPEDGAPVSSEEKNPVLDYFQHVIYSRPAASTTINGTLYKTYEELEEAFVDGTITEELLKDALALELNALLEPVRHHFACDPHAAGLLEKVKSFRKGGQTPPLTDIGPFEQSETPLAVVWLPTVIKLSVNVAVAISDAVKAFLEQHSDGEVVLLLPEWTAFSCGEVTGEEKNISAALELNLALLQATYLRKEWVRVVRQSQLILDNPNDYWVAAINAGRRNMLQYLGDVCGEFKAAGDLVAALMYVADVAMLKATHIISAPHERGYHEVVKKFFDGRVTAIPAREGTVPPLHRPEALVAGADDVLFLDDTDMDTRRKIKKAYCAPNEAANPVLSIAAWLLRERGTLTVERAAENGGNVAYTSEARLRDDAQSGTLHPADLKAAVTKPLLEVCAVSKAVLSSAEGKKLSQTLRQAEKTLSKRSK
Experiment: Trypanosoma cruzi tyrosyl tRNA synthetase (TcYRS) _High Tyrosine SOP; further: in the data most compounds retested in dose-response had high values
Format: functional
Set-up: scale not given: direction of the effect not stated beside the values
Settings: 30 µM
Readout type: Percent Effect (%)
One number for each entry, in %.

As a guide, the following entries are already answered.
CCn1nccc1CNC(=O)C1CC1
8.6
c1ccc2sc(N3CCOC(Cn4cccn4)C3)nc2c1 (configuration not stated)
8.37
c1cnnc(N2CCCC2CNCc2nc3ccccc3o2)c1 (configuration not stated)
15.6
Cn1cc(CN2CCC3(CCCN(Cc4ccccn4)C3)CC2)cn1
3.12
Cc1cccc(C)c1OCCNC(=O)NC(C)c1nncn1C (configuration not stated)
8.57

Your task in this section: give Percent Effect for each listed record.
1. CCc1nc(CN(C)C2CCN(Cc3cnc(C)cn3)C2)no1 (configuration not stated)
2. Cc1cnn(CC2CN(Cc3cccc(OCC(N)=O)c3)CCO2)c1 (configuration not stated)
3. O=C(c1ccoc1)N1CC[C@H]2OCC[C@@]2(COc2ncccc2F)C1
4. CN1CCN(C(=O)c2cnc3c(cnn3C3CCCC3)c2)CC1
5. CC(C)c1nc2n(n1)CC(NCc1nc(-c3cccnc3)no1)CC2 (configuration not stated)
6. COc1cc(CNC(=O)NCc2c(C)cc(C)[nH]c2=O)ccc1C

Response:
[8.37, 3.88, 4.3, 5.42, 3.81, 2.45]

For each of the compounds below, state Percent Effect.
1. COc1cccc(-c2nc(C)c(C(=O)NC(CO)CCSC)s2)c1 (configuration not stated)
2. CN(C)C(=O)CN1C[C@@H]2CC[C@H](C1)N(C(=O)CCn1cncn1)C2
3. c1csc(-c2nc(CN3CCCC3Cn3cncn3)co2)c1 (configuration not stated)
4. Cc1ccc(NC2CCN(C(=O)c3cccn3C)CC2)nn1

Response:
[4.23, 6.88, 2.15, 10.7]

Hey, can you go through the list below and give me Percent Effect for every item?
1. CN(Cc1ccco1)[C@@H]1CN(C(=O)c2ccnnc2)C[C@@H]2CCCO[C@@H]21
2. Cc1ncsc1C(=O)N(C)Cc1ccncc1
3. CC(C)n1c(=O)nc2n1C(=O)N(c1ccccc1)C2
4. NCC1CN(c2nc(-c3ccccc3)nc3c2CCNCC3)CCO1 (configuration not stated)
5. CCc1nnc2n1CCN(Cc1csc(-c3ccsc3)n1)C2
6. CNC(=O)[C@@]12CCO[C@@H]1CCN(S(=O)(=O)c1cccc(C)c1)C2

Response:
1. 2.08
2. 1.47
3. 6.38
4. 24
5. 4.21
6. 1.08

State recorded Percent Effect for all listed compounds.
1. Cc1cc(C)n(CC2CCCCN2Cc2cscn2)n1 (configuration not stated)
2. Cc1scc(C(=O)N2CCC3(CC(=O)NC3=O)C2)c1-c1ccccc1 (configuration not stated)
3. CC(=O)NCC(=O)N1CCC2(CC1)CN(c1cccnc1)C(=O)CO2

Response:
1. 7.62
2. 8.99
3. -1.08

Look at each compound and report its Percent Effect.
1. CC(CN1CCOCC1)NC(=O)N(C)Cc1ccc(Cl)s1 (configuration not stated)
2. CN1CCN(C(=O)[C@@H]2CCO[C@@H]3CCN(c4ncccn4)C[C@@H]32)CC1
3. CCc1noc(C)c1C(=O)N(C)Cc1ncc(C)c(OC)c1C

Response:
1: 6.38; 2: 7.29; 3: 8.57

Could you tell me Percent Effect for each of these compounds? They are listed below.
1. CN(Cc1ccccn1)C(=O)[C@]12COC[C@H]1CN(Cc1cnn(C)c1)C2
2. O=C(NCc1nnc2n1CCCC2)N1CCc2ccccc2C1
3. NCCn1nc(C2CCN(C(=O)CC3CCCCC3)C2)c2nccnc21 (configuration not stated)
4. O=C1CCCN1Cc1ncn2c1CN(C(=O)c1cccc(F)c1)CCC2
5. COc1ccc(CN2CC[C@H](NC(C)=O)[C@@H](O)CC2)c(OC)c1
6. O=C(c1cnccn1)N1CCc2ncnc(-c3cccnc3)c2CC1
7. Cc1ccc(NC2CCN(C(=O)c3cccc(F)c3F)CC2)nn1
8. O=C(CCc1cccnc1)N(Cc1ccsc1)CC1CCCO1 (configuration not stated)

Response:
1: 2.08; 2: 1.04; 3: -8.51; 4: 8.6; 5: -1.07; 6: 0; 7: 4.17; 8: 1.59

Hi team, please reply with Percent Effect for each item in this list.
1. Cc1ccc(CNC(=O)CN2CCN(CC(O)c3ccco3)CC2)cc1 (configuration not stated)
2. O=C(NCc1ccccc1CN1CCC(O)CC1)Nc1cccnc1

Response:
[4.23, 1.59]

Quick request: Percent Effect for each listed item, please.
1. COc1ccc(-c2nc(CN3CCN(CCO)CC3)co2)cc1
2. COCCc1noc(CNC2CCCN(c3cccnn3)C2)n1 (configuration not stated)
3. Cc1cccc(C(=O)N2C[C@@H]3OCCN(c4ncccn4)[C@@H]3C2)n1
4. CSc1ccc(NC(=O)Nc2ccc3c(c2)N(S(C)(=O)=O)CC3)cc1
5. Cc1cccc2c1cnn2CCCNC(=O)CCCC(=O)O
6. CCCN1CCC(N(Cc2ncc(C)o2)C(C)=O)C1 (configuration not stated)
7. Cc1cc2c(=O)n3c(nc2s1)CCN(C(=O)c1ccncc1)CC3
8. Cc1nn(C)c(N(C)C)c1CNCc1cccnc1

Response:
1. 5.83
2. 0
3. 5.21
4. -6.35
5. 4.3
6. 3.23
7. 2.15
8. -4.3

List the reported Percent Effect of each compound below.
1. COc1cccc(N2CCN(CCC(=O)NC3CCCC3)CC2)c1
2. O=C(NCCCn1cncn1)NCC(c1ccccc1)N1CCCC1 (configuration not stated)

Response:
9.57
3.81

Just for reference, ChEMBL document CHEMBL3988442 is where these values come from.
